Reference source for all entries: PubChem BioAssay AID1645855

system: Ubiquitin carboxyl-terminal hydrolase 17-like protein 5 (Homo sapiens) (UniProt A8MUK1)
Sequence (A8MUK1 whole entry, looked up): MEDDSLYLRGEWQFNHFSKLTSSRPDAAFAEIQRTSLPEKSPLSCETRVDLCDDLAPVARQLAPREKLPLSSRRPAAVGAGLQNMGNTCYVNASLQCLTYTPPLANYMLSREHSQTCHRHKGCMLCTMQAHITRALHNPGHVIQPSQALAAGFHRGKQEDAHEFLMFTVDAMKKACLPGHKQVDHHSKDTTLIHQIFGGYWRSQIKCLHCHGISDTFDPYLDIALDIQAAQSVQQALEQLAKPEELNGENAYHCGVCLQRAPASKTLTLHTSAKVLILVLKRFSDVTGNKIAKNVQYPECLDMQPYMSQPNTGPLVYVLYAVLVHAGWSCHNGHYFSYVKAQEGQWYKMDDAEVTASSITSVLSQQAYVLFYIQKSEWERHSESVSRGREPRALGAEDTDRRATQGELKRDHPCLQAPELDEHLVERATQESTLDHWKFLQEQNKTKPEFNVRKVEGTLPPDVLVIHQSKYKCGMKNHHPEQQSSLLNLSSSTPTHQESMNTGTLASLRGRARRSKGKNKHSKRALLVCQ
assay.overview: inhibitors of human USP17 deubiquitinase (AID 1645855)
test.conditions: purified USP17, Ub-rhodamine cleavage fluorescence, 3 h; at 50 µM
Among all 47,000 compounds or so, about 3,100 (6.6%) were called active. Cut-off read from the data, not from the text of the source: active = inhibition above about 30%; inactive = the rest. The full list was thinned out, with actives kept by preference.
Your answer must be one of the following: TRUE (active), FALSE (inactive)

{"molecule": "Cn1cc(CN2CCC3(CC2)Nc2cc(Cl)ccc2C2=NCCN23)cn1", "category": "FALSE"}

Entry Cc1ccc(NC(=O)NCc2nnnn2-c2ccccc2)cc1C : call = ?
FALSE

Entry Cc1ccc(S(=O)(=O)N2Cc3ccccc3CN3C(=O)NC(=O)C3C2)cc1 (stereo unspecified) : call = ?
FALSE

Entry Cc1noc(C)c1CN1C[C@H](OCc2ccccn2)[C@H]2OCCC[C@H]21 : call = ?
FALSE

Entry O=C(NCC1CC1)[C@H]1C[C@@H]2CN(S(=O)(=O)c3ccccc3)C[C@H]1O2 : call = ?
FALSE

Entry COC(=O)c1cccc(Oc2nc(OC)nc(OC)n2)c1 : call = ?
FALSE

Entry CC(C)c1ccc(OCC(=O)NCc2nnnn2-c2ccc(Cl)cc2)cc1 : call = ?
FALSE

Entry O=C(COc1ccc2ccccc2c1)NCc1nnnn1-c1ccc(Cl)cc1 : call = ?
TRUE

Entry COc1cccc(NS(=O)(=O)c2ccc(-c3coc(C)n3)cc2)c1 : call = ?
FALSE

Entry COc1cccc(N2CCN(C(=O)CCC3=NS(=O)(=O)c4ccc(C)cc4N3)CC2)c1 : call = ?
FALSE

Entry c1ccc(-c2nc3c4ccccc4nc(NC4CCCC4)n3n2)cc1 : call = ?
FALSE

###

Let's look at some compounds and their measured inhibition.
system: Ubiquitin carboxyl-terminal hydrolase 17-like protein 5 (Homo sapiens) (UniProt A8MUK1)
assay.overview: inhibitors of human USP17 deubiquitinase (AID 1645855)
test.conditions: purified USP17, Ub-rhodamine cleavage fluorescence, 3 h; at 50 µM; active compounds read high
Screen size: about 47,000 compounds; about 3,100 (6.6%) were called active. The sample as a whole holds a higher share of actives than the screen did.
Give a bare numeral; the unit % is implied.

{"compound": "Cc1ccc(CS(=O)(=O)c2cn(CC(=O)N3CCCCC3)c3ccccc23)cc1", "inhibition, %": -20.5}

Answer with the recorded inhibition of O=C(Cn1cc(S(=O)(=O)Cc2ccccc2F)c2ccccc21)N1CCCCCC1 only.
-0.288

Answer with the recorded inhibition of COc1cccc(-c2nnc(-c3ccccc3NS(=O)(=O)c3ccc(C)cc3)o2)c1 only.
15.5

Answer with the recorded inhibition of COc1ccc(C(=O)Nc2ccc(N)cn2)cc1 only.
12

Answer with the recorded inhibition of Cc1ccc(-c2nnc(NC(=O)C(c3ccccc3)c3ccccc3)o2)c(C)c1 only.
2.51

Answer with the recorded inhibition of Cn1cnnc1SCC(=O)Nc1ccc(N2CCOCC2)c(Cl)c1 only.
-11.6

Answer with the recorded inhibition of O=C(c1cc2ccccc2[nH]1)N1CCCC2(COCCN(c3cccnc3)C2)C1 (stereo unspecified) only.
16.4

###

system: Ubiquitin carboxyl-terminal hydrolase 17-like protein 5 (Homo sapiens) (UniProt A8MUK1)
assay.overview: inhibitors of human USP17 deubiquitinase (AID 1645855)
test.conditions: purified USP17, Ub-rhodamine cleavage fluorescence, 3 h; at 50 µM
Out of some 47,000 compounds screened, about 3,100 (6.6%) were called active. Cut-off read from the data, not from the text of the source: active = inhibition above about 30%; inactive = the rest. The entries come from a sample that favours actives as a whole.
Your answer must be one of the following: label 1 for active, label 0 for inactive

{"compound": "CN(C(=O)c1ccc(S(=O)(=O)N2CCOCC2)cc1)c1nnc(C23CC4CC(CC(C4)C2)C3)s1", "category": "label 0"}
{"compound": "COc1ccc(N(Cc2cc(=O)[nH]c3ccccc23)C(=O)c2ccc(Cl)cc2)cc1", "category": "label 1"}
{"compound": "CCC(=O)Nc1nc2cc(NC(=O)c3ccc(OC)cc3)ccc2s1", "category": "label 1"}

Now turn to the next compound.
Entry CCOc1ccc2nc(NC(=O)CN3CCC(C(N)=O)CC3)sc2c1 : call = ?
label 0
